# System: HeLa
# Experimental Details: Cytotoxicity against human HeLa cells after 72 hrs by MTT assay
# Format: functional, cell-based
Quantity Name: pIC50
Answer as the number alone; pIC50 is minus log10 of concentration in mol/L.

Enquiry: Read the entry CC(C)=CCC/C(C)=C/CC/C(C)=C/CCC1(C)CCc2c(C)cc(O)c(O)c2O1 (centres undefined) and write its reported pIC50.
Return: 4.53

Enquiry: Hello, please tell me recorded pIC50 for this one: `COC(=O)c1c(O)cc(O)cc1Oc1c(O)c(OC)cc(CC=C(C)C)c1OC`
Return: 5.02

Enquiry: Item `COc1c(O)c(CC=C(C)C)cc2c1Oc1cc(O)c(CC=C(C)C)c(O)c1C(=O)O2` : provide pIC50
Return: 4.02

Enquiry: Return reported pIC50. Input molecule: `CC1(C)C=Cc2c(c3ccoc3c3oc4c(O)cccc4c23)O1`
Return: 4.28

====

# System: HeLa C3
# Experimental Details: Induction of apoptosis in human HeLaC3 cells assessed as reduction of yellow fluorescent protein/cyan fluorescent protein emission ratio below 3 at 100 uM after 72 hrs by FRET assay
# Format: functional, cell-based
The source made the active and inactive calls. No cut-off for these calls is given here.
Select the correct class. Options are active, inactive and nothing else.

Enquiry: Per the records of this test, what outcome belongs to `CC(C)=CCc1c(O)cc2oc3ccc(O)cc3c(=O)c2c1O` ?
Return: inactive

Enquiry: Outcome logged for `C=C(C)[C@@H]1C[C@]23C[C@H](CC=C(C)C)C(C)(C)[C@](CC=C(C)C)(C(=O)C(C(=O)c4ccc(O)c(O)c4)=C2O[C@H]1C=C(C)C)C3=O` in this assay:
Return: active

Enquiry: Name the outcome recorded for CC(C)=CCC/C(C)=C/CC/C(C)=C/CCC1(C)CCc2c(C)ccc(O)c2O1 (stereo not given) in the assay.
Return: inactive

Enquiry: Any idea what this test logged for `C=CC(C)(C)c1c(OC)c(CC=C(C)C)c(O)c2c(=O)c3ccc(O)c(O)c3oc12` ?
Return: active

Enquiry: Look up the recorded call for `CC(C)=CC[C@H]1C[C@@]23C[C@@H](CC=C(C)C)C(C)(C)[C@@](CC=C(C)C)(C(=O)C(C(=O)c4ccc(O)c(O)c4)=C2OC1(C)C)C3=O` in this test.
Return: inactive
